Target: PKR R510Q (Homo sapiens, UniProt P30613, R510Q)
Sequence (P30613 whole entry R510Q): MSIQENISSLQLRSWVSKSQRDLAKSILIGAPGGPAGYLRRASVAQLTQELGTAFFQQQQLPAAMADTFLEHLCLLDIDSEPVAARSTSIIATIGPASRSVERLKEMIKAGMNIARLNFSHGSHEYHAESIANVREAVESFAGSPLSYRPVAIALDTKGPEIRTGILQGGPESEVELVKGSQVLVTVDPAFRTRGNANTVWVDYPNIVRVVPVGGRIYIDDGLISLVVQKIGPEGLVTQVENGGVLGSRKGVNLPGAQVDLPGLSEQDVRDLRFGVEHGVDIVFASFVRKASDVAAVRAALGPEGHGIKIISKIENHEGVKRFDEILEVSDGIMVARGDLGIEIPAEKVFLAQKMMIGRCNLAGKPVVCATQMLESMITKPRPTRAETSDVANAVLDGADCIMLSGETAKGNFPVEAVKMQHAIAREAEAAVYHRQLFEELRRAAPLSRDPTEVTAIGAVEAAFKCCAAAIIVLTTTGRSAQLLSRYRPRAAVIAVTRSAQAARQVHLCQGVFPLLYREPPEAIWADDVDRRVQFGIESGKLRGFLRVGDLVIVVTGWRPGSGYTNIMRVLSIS
Assay: PKR mutant assay (AC50), PKR R510Q
Type: biochemical
Conditions: PKR R510Q mutant enzyme; read-out: PK R510Q AC50
Procedure: Example 11. PKR Mutant Assay PKR or PKR mutant enzyme solution was diluted into a reaction mix, which contains 1× buffer (100 mM KCl, 50 mM Tris pH 7.5, 5 mM MgCl2) as well as PEP (cont depends on enzyme), 180 μM NADH, 0.5 units LDH, 1 mM DTT, 0.03% BSA; final assay concentrations after 1.11 fold dilution are indicated. […] 20 uL ADP was added to start reaction at room temperature and reaction progress was measured as changes in absorbance at 340 nm wavelength at room temperature. […]
reported-metric: AC50

Below, each entry is followed by its recorded AC50 result.
>  <compound>
Cn1c2nc(Cc3c[nH]nn3)sc2c2cnn(Cc3cc[nH]n3)c(=O)c21

>  <AC50>
< 0.3 µM

$$$$
>  <compound>
Cn1c2nc(Cn3cccn3)sc2c2cnn(Cc3cc[nH]n3)c(=O)c21

>  <AC50>
< 0.3 µM

$$$$
>  <compound>
Cn1cc(CN)c(Cn2ncc3c4sc(Cc5cc[nH]n5)nc4n(C)c3c2=O)n1

>  <AC50>
< 0.3 µM

$$$$
>  <compound>
Cn1c2nc(Cc3cc[nH]n3)sc2c2cnn(Cc3ccn(N)n3)c(=O)c21

>  <AC50>
< 0.3 µM

$$$$
>  <compound>
Cn1c2nc(Cc3cc[nH]n3)sc2c2cnn(Cc3nc(C#N)cs3)c(=O)c21

>  <AC50>
< 0.3 µM

$$$$
>  <compound>
Cn1c2nc(Cc3cc[nH]n3)sc2c2cnn(Cc3[nH]ncc3Cl)c(=O)c21

>  <AC50>
< 0.3 µM

$$$$
>  <compound>
Cn1ccc(Cn2ncc3c4sc(Cc5c[nH]nn5)nc4n(C)c3c2=O)n1

>  <AC50>
< 0.3 µM

$$$$
>  <compound>
Cn1c2nc(Cc3cc[nH]n3)sc2c2cnn(Cc3nc[nH]c3C(N)=O)c(=O)c21

>  <AC50>
> 0.8 µM

$$$$
>  <compound>
Cn1c2nc(Cc3nc(N)ccc3F)sc2c2cnn(Cc3cc[nH]n3)c(=O)c21

>  <AC50>
< 0.3 µM

$$$$
>  <compound>
COc1scnc1Cn1ncc2c3sc(Cc4cc[nH]n4)nc3n(C)c2c1=O

>  <AC50>
< 0.3 µM

$$$$

INPUT: Consider the compound Cn1c2nc(Cc3cc[nH]n3)sc2c2cnn(Cc3cnc(C(N)=O)o3)c(=O)c21 and give its measured AC50.
OUTPUT: 0.301 to 0.8 µM

INPUT: Consider the compound Cn1c2nc(Cc3ccn[nH]3)sc2c2cnn(Cc3cn[nH]c3)c(=O)c21 and give its measured AC50.
OUTPUT: < 0.3 µM

INPUT: Consider the compound Cn1c2nc(Cc3cc[nH]n3)sc2c2cnn(Cc3n[nH]c(=O)[nH]3)c(=O)c21 and give its measured AC50.
OUTPUT: > 0.8 µM

INPUT: Consider the compound Cn1c2nc(Cc3cc[nH]n3)sc2c2cnn(Cc3nccc(N)n3)c(=O)c21 and give its measured AC50.
OUTPUT: < 0.3 µM

INPUT: Consider the compound CC(=O)Nc1ccc(F)c(Cn2ncc3c4sc(Cc5cc[nH]n5)nc4n(C)c3c2=O)n1 and give its measured AC50.
OUTPUT: < 0.3 µM

INPUT: Consider the compound Cn1c2nc(Cc3c[nH]cn3)sc2c2cnn(Cc3ncsc3Cl)c(=O)c21 and give its measured AC50.
OUTPUT: < 0.3 µM

INPUT: Consider the compound Cn1c2nc(Cc3cc[nH]n3)sc2c2cnn(Cc3cc(Cl)[nH]n3)c(=O)c21 and give its measured AC50.
OUTPUT: < 0.3 µM

INPUT: Consider the compound Cn1c2nc(Cc3c[nH]nn3)sc2c2cnn(Cc3cscn3)c(=O)c21 and give its measured AC50.
OUTPUT: < 0.3 µM

INPUT: Consider the compound Cn1c2nc(Cc3cc[nH]n3)sc2c2cnn(Cc3ccc[nH]c3=O)c(=O)c21 and give its measured AC50.
OUTPUT: < 0.3 µM

INPUT: Consider the compound CCOC(c1cscn1)c1nc2c(s1)c1cnn(Cc3c[nH]nn3)c(=O)c1n2C (centres unmarked) and give its measured AC50.
OUTPUT: > 0.8 µM
